Data provenance: patent US8940720B2

Where a name gives a salt, the structure may show the parent alone.
Data export: pKi values recorded with purified human Factor XIa (Homo sapiens (Human), UniProt P03951).
Sequence (P03951 388-625): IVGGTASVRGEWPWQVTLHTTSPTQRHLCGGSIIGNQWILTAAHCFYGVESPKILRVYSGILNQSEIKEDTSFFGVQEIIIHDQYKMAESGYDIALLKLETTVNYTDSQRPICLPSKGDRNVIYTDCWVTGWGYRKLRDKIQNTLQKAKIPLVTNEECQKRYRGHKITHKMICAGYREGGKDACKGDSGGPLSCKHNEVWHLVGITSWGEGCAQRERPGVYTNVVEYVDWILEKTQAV
Sequence (P03951 19-387 partner): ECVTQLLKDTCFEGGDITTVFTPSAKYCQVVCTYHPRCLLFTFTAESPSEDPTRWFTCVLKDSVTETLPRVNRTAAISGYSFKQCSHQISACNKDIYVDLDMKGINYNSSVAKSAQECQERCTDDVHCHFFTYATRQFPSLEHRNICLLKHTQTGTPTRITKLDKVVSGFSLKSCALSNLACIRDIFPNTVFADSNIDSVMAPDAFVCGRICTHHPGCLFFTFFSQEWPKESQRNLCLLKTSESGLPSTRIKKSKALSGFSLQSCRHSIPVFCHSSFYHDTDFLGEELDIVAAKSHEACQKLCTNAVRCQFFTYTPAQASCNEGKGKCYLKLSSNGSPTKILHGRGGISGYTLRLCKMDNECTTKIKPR
Notebook: values listed as pKi are -log10 of the concentration (mol/L).

Solved entries (count: 6):
COC(=O)Nc1ccc2c(c1)NC(=O)C/C=C/CC(NC(=O)/C=C/c1cc(Cl)ccc1-n1cnnn1)c1cc-2nc(C)n1 (stereo not shown) [Example 167]	6.80
COC(=O)Nc1ccc2c(c1)N[C@@H](C(F)(F)F)CCCC[C@H](NC(=O)/C=C/c1cc(Cl)ccc1-n1cnnn1)c1nc-2c(Cl)[nH]1 [Example I-60]	6.21
CCOC(=O)[C@H]1CCCC[C@H](NC(=O)/C=C/c2cc(Cl)ccc2-n2cnnn2)c2nc(c(C)[nH]2)-c2ccc(NC(=O)OC)cc2N1 [Example I-242, bis-trifluoroacetic acid salt]	6.34
COC(=O)Nc1ccc2c(c1)NC(C(F)(F)F)CC/C=C/C[C@H](NC(=O)/C=C/c1cc(Cl)ccc1-n1cnnn1)c1nc-2c[nH]1 (stereo partly shown) [Example I-211]	5.66
COC(=O)Nc1ccc2c(c1)CCCCCC[C@H](NC(=O)/C=C/c1cc(Cl)ccc1-n1cnnn1)c1nc-2c[nH]1 [Example 6]	7.47
COC(=O)Nc1ccc2c(c1)NC(=O)CC/C=C/C[C@H](NC(=O)c1ccc(C#N)cc1)c1nc-2c(Cl)[nH]1 [Example 136, TFA salt]	6.02

GET /values?readout=pKi&system=purified human Factor XIa (Homo sapiens (Human), UniProt P03951)&item= COC(=O)Nc1ccc2c(c1)NC(C(F)(F)F)CCCC[C@H](NC(=O)c1ccc(C(=N)N)cc1)c1cc-2ccn1 (stereo partly shown) [II-15]
5.38

GET /values?readout=pKi&system=purified human Factor XIa (Homo sapiens (Human), UniProt P03951)&item= COC(=O)Nc1ccc2c(c1)NC(=O)CCCC[C@H](NC(=O)c1cn(-c3cccc(Cl)c3)nn1)c1nc-2c[nH]1 [Example I-10]
6.66

GET /values?readout=pKi&system=purified human Factor XIa (Homo sapiens (Human), UniProt P03951)&item= Cc1cc(F)c(C(=O)N[C@H]2C/C=C/CCC(=O)Nc3cc(NC(=O)OCCN(C)C)ccc3-c3nc2[nH]c3Cl)c(F)c1 [Example I-183, TFA]
5.31

GET /values?readout=pKi&system=purified human Factor XIa (Homo sapiens (Human), UniProt P03951)&item= CCOC(=O)[C@@H]1CCCC[C@H](NC(=O)/C=C/c2c(-n3cnnn3)ccc(Cl)c2F)c2cc(ccn2)-c2ccc(NC(=O)OCCOC)cc2N1 [II-43]
6.03

====

# SYSTEM UNDER TEST: purified human Factor XIa (Homo sapiens (Human))
Structures can show the parent of a compound that is named as a salt.
ASSAY ENDPOINT: pKi
Notebook: values listed as pKi are -log10 of the concentration (mol/L).

CCOC(=O)[C@@H]1CCCC[C@H](NC(=O)/C=C/c2cc(Cl)ccc2-n2cnnn2)c2nc(c[nH]2)-c2ccc(NC(=O)OC)cc2N1 [Example I-67, TFA salt]	6.69
COC(=O)Nc1ccc2c(c1)NC(=O)CC/C=C/C[C@H](NC(=O)c1ccc3c(c1)CCC[C@H]3N)c1nc-2c[nH]1	7.68
COC(=O)Nc1ccc2c(c1)NC(=O)CCCC[C@H](NC(=O)c1ccc3cccnc3c1)c1nc-2c[nH]1	6.17
CCOC(=O)CN1CCCC[C@H](NC(=O)/C=C/c2cc(Cl)ccc2-n2cnnn2)c2nc(c[nH]2)-c2ccc(NC(=O)OC)cc2C1	6.13

What value of pKi has been reported for the following molecule? "COC(=O)Nc1ccc2c(c1)N(C(=O)OC)CCCCC[C@H](NC(=O)/C=C/c1cc(Cl)ccc1-n1cnnn1)c1nc-2c[nH]1"
5.41

What value of pKi has been reported for the following molecule? COC(=O)Nc1ccc2c(c1)NC(C(=O)OC)(C(F)(F)F)CCCC[C@H](NC(=O)/C=C/c1cc(Cl)ccc1-n1cnnn1)c1nc-2c[nH]1 (stereo partly drawn)
6.36

What value of pKi has been reported for the following molecule? COC(=O)Nc1ccc2c(c1)/N=C/CCCC[C@H](NC(=O)/C=C/c1cc(Cl)ccc1-n1cnnn1)c1nc-2c(F)[nH]1 [Example I-107, trifluoroacetic acid salt]
7.54

What value of pKi has been reported for the following molecule? COC(=O)Nc1ccc2c(c1)NC(=O)CC/C=C/CC(NC(=O)/C=C/c1cc(Cl)ccc1-n1cnnn1)c1cc(Cl)nnc1-2 (stereo not drawn)
5.98

What value of pKi has been reported for the following molecule? "COC(=O)Nc1ccc2c(c1)NC(=O)CCCC[C@H](NC(=O)c1ccc3ncccc3c1)c1nc-2c[nH]1"
5.53

What value of pKi has been reported for the following molecule? "NC[C@H]1CC[C@H](C(=O)N[C@H]2C/C=C/CCCc3ccccc3-c3c[nH]c2n3)CC1"
5.21
